# System: L1210 leukemia ip in BDF1 mice, survival T/C
# method summary: NCI In Vivo Anticancer Drug Screen. Data for tumor model L1210 Leukemia (intraperitoneal) in B6D2F1 (BDF1) mice
# condition description: endpoint: mean survival time; dose: 200.0 mg/kg/injection; schedule: Q01DX001 (ip); vehicle: carboxymethylcellulose (CMC); higher = longer survival
# Protocol: The antitumor activity of compounds was measured in mice bearing transplantable tumors. Survival or tumor size were measured and the results are expressed as the measurement made in the treated group (T) divided by the measurement made in the vehicle treated control group (C). The tumor model used in this assay is L1210 Leukemia (intraperitoneal) in B6D2F1 (BDF1) mice
Inconclusive results and toxic doses are left out.
measure name: T/C

// query Look up T/C for this compound: "CCCCCCCNC1=C(C)C(=O)C(NCCCCCCC)=C(C)C1=O"
// result 96 % of control

// query What T/C value was documented for this compound, "CCCCCOc1ccc(C2=C(c3ccccc3)C(=O)C(c3ccccc3)=C2c2ccccc2)cc1" ?
// result 100 % of control

// query Param item = "COCC(=O)Nc1ccc(Cl)c(Cl)c1" ; retrieve measured T/C.
// result 92 % of control

// query Dear colleague, I am looking for the recorded T/C of the following compound: "CS(=O)(=O)Oc1c(Br)cc(Br)c2cccnc12"
// result 98 % of control

// query For "C(/CCc1ccccc1)=N\Nc1nnc(N/N=C/CCc2ccccc2)c2ccccc12" , what is its reported T/C?
// result 102 % of control

// query What value of T/C has been reported for the following compound? "CCCN(CCC)C(=O)/C(=C\c1ccccc1)NC(=O)c1ccccc1"
// result 93 % of control

// query Please look up its T/C: "O=C1O/C(=C\c2ccccc2)c2c(Br)c(Br)c(Br)c(Br)c21"
// result 91 % of control

---

Kindly supply the reported T/C values for the records listed here.
# Tested on: L1210 leukemia ip in BDF1 mice, survival T/C
# method summary: NCI In Vivo Anticancer Drug Screen. Data for tumor model L1210 Leukemia (intraperitoneal) in B6D2F1 (BDF1) mice
# condition description: endpoint: mean survival time; dose: 400.0 mg/kg/injection; schedule: Q04DX003 (ip); vehicle: saline with Tween-80; higher = longer survival
Toxic doses and inconclusive results are not listed.

// query Please look up its T/C: "O=C(NC(=S)Nc1cccc(F)c1)c1cccc([N+](=O)[O-])c1"
// result 101 % of control

// query Value lookup for T/C; key = "Nc1ccc(OCCCCNC(=O)c2ccc(S(=O)(=O)F)cc2)c(Cl)c1"
// result 97 % of control

// query Which value of T/C has been reported for "CCN1c2ccccc2Sc2ccccc21" in the records?
// result 100 % of control

// query Could you share which T/C value was measured for "CN(C)C(=O)c1cccc(NCc2ccc3nc(N)nc(N)c3c2)c1" ?
// result 92 % of control

// query Can you look up the measured T/C of "CCOC(=O)/C(C#N)=C/c1cc2c3c(c1)CCCN3CCC2" for me?
// result 92 % of control

// query Param item = "Fc1ccc(N=C2c3ccccc3-c3ccccc32)cc1" ; retrieve measured T/C.
// result 95 % of control

// query Which value of T/C has been reported for "COc1ccc(Cl)cc1NC(=O)c1ccc(Cl)cc1Cl" in the records?
// result 97 % of control

// query So what's the measured T/C for this one? "CCN(CC)C(=S)Oc1ccc(OC(=S)N(CC)CC)cc1"
// result 91 % of control

// query What does the record list as T/C for "CCCCCCCC(=O)Nc1c(C)cc(C)cc1C" ?
// result 93 % of control

// query I am curious: what T/C value has been reported for "CN(C)C1=CC(=N/S(=O)(=O)c2ccccc2)/C(N(C)C)=CC/1=N/S(=O)(=O)c1ccccc1" ?
// result 87 % of control

// query Recorded T/C of "CC(C)(C)C(=O)CC(=O)C(C)(C)C.CC(C)(C)C(=O)CC(=O)C(C)(C)C.CC(C)(C)C(=O)CC(=O)C(C)(C)C.[Tb]" , please.
// result 94 % of control

// query Look up T/C: "CC1(C)COP(Oc2ccccc2)OC1"
// result 107 % of control

// query I have this compound here, "CC(=O)Nc1ccc(S(=O)(=O)OCCC#N)cc1" , and I need its recorded T/C.
// result 90 % of control

---

# System: L1210 leukemia ip in BDF1 mice, survival T/C
# method summary: NCI In Vivo Anticancer Drug Screen. Data for tumor model L1210 Leukemia (intraperitoneal) in B6D2F1 (BDF1) mice
# condition description: endpoint: mean survival time; dose: 100.0 mg/kg/injection; schedule: Q01DX001 (ip); vehicle: saline; higher = longer survival
Inconclusive results and toxic doses are left out.
Would you kindly list T/C for each of these compounds?

// query # query: T/C of entry Nc1ncnc2c1ncn2C1OCC(CO)C1O (stereo not drawn)
// result 107 % of control

// query Request the reported T/C associated with "CC(C)(C)C#CCCl"
// result 96 % of control

// query # lookup: T/C of "CNC(=O)CS(=O)(=O)c1ccc(C)cc1"
// result 97 % of control

// query // lookup T/C for CCCC(C)c1ccc(N=NC2C(=O)c3ccccc3C2=O)cc1 (stereo not drawn)
// result 94 % of control

// query Looking for the measured T/C of "O=c1cccc(CCc2ccccc2)[nH]1" , can you help?
// result 100 % of control

// query Please report the recorded T/C for "Cc1ccccc1S(=O)(=O)Cc1cc(Cl)cc(Cl)c1O" .
// result 90 % of control

// query # get_value(readout='T/C', item= CC(C)Cc1ccc(C(C)C(=O)O)cc1 (stereo not drawn) )
// result 100 % of control

// query Which T/C is reported for this compound? "Cc1c(Br)c(=O)[nH]c2c(C)cccc12"
// result 98 % of control

// query // lookup T/C for "N#Cc1ccccc1CC(O)(c1ccccc1)c1ccccc1"
// result 102 % of control

// query For the compound "C(=N\Nc1nnc(N/N=C/c2cccc(OCc3ccccc3)c2)c2ccccc12)/c1cccc(OCc2ccccc2)c1" , what T/C is on record?
// result 95 % of control

// query What measured T/C goes with "CCCCSc1n[nH]c(=O)[nH]c1=S" ?
// result 91 % of control

// query Look at this compound and give its reported T/C. "CCC1=C(C)CN(C)c2ccccc21"
// result 100 % of control

// query Using the record for COC(=O)C(NC(=O)C(C)NC(=O)c1cnc2ccccc2n1)C(C)C (stereo not drawn) , report its T/C.
// result 91 % of control

// query For the compound shown here, CC(C)(C)NCCCN1CC1(C)C (stereo not drawn) , give the reported T/C.
// result 110 % of control

// query For "COc1ccc(Cc2ccc3c(C)cc(Cl)nc3c2)cc1" , what is its reported T/C?
// result 98 % of control

// query Recorded T/C of CN1C(=O)C(Br)=C(Br)C1(O)c1cccnc1 (stereo not drawn) , please.
// result 104 % of control

// query Would you mind telling me what T/C value was observed for "CC(=O)OCC1CCC1" ?
// result 93 % of control

// query For the compound shown here, COC(=O)C1OC1c1cc(Cl)ccc1OC (stereo not drawn) , give the reported T/C.
// result 102 % of control

// query What value of T/C has been recorded for this entry: "O=C1O/C(=C\c2ccccc2)c2ccccc21"
// result 101 % of control

// query Bench note: what T/C did "O=[N+]([O-])c1ccc2c3c(cccc13)CC2" show?
// result 102 % of control

// query Using the record for "N#CC(C#N)=C1CCSc2ccc(Cl)cc21" , report its T/C.
// result 94 % of control

// query Which T/C value belongs to O=C(N/N=C/c1cccnc1)C(O)C(O)C(O)C(O)CO (stereo not drawn) ?
// result 100 % of control

// query Query: T/C; subject: CC(C#N)NC(=O)NC(C)C(N)=O (stereo not drawn)
// result 107 % of control

// query Look up T/C: "CCCSc1ccccc1N1CCNCC1"
// result 101 % of control

// query Need T/C, item CCCCOC(=O)CC(C(=O)OCCCC)S(=O)(=O)O (stereo not drawn)
// result 96 % of control

// query Request the reported T/C associated with CC(C)C(N)C(=O)O (stereo not drawn)
// result 95 % of control

// query What value of T/C has been reported for the following compound? "O=N/C=C/C(=N/Nc1ccc(C(=O)O)cc1)[N+](=O)[O-]"
// result 101 % of control

// query What value of T/C has been recorded for this entry: "CC(C)CC(C)(CC(C)C)C(=O)O"
// result 100 % of control

// query What value of measured T/C is listed for CCOC(=O)N1CCN2C(=O)N(CC)CCC2C1 (stereo not drawn) ?
// result 93 % of control

// query Any idea what its T/C is? The compound is "CCCCNc1cc(Nc2ccc(Br)cc2)nc(N)n1"
// result 102 % of control

// query Item "Oc1ccc(O)c2c1C1c3ccccc3C2c2ccccc21" has what recorded T/C?
// result 86 % of control

// query Quick one: T/C of Cc1nn(C2CC(O)C(O)C(CO)O2)c(=O)[nH]c1=O (stereo not drawn) ?
// result 96 % of control

// query Form field: reported T/C of "Nn1c(-c2cccc(O)c2)nnc1-c1cccc(O)c1"
// result 104 % of control
